Target: T1, native IL-5R a/β complex on TF-1 cells (human, UniProt Q01344 21-420; P32927 17-897)
T1 sequence (looked up) 1: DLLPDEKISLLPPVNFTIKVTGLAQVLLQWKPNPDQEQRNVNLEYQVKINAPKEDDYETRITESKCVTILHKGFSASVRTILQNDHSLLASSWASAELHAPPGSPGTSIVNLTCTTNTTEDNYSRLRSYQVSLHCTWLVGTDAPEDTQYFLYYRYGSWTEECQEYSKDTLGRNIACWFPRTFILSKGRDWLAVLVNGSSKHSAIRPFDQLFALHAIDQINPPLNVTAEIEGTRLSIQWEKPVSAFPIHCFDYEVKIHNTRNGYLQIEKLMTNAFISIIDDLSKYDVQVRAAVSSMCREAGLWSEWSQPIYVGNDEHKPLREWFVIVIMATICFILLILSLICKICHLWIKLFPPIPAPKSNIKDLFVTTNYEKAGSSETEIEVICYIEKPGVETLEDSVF
T1 sequence (looked up) 2: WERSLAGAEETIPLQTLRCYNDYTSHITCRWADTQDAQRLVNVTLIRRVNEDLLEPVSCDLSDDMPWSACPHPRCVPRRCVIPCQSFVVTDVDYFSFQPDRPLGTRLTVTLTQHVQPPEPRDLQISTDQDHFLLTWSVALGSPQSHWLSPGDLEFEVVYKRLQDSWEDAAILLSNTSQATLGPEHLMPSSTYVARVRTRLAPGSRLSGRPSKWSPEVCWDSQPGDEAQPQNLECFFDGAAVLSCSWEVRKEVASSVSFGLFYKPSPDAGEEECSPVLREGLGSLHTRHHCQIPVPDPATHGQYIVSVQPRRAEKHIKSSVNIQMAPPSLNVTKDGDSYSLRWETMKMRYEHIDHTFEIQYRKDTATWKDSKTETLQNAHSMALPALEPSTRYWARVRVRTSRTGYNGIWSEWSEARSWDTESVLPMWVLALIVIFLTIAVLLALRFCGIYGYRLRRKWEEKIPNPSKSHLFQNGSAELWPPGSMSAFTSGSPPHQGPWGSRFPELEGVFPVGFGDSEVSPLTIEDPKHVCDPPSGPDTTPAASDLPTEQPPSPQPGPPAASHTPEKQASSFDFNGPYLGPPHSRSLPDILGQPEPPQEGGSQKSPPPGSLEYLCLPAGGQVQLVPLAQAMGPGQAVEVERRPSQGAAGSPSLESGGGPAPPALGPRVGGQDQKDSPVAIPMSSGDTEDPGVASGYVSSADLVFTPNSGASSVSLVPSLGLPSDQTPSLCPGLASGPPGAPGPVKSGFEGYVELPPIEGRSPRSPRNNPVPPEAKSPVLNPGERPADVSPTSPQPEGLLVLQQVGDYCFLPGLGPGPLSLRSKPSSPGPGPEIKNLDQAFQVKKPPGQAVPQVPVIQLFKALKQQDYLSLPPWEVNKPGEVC
Assay: cell-based or functional assay
Bridge positions count the residues as written; N and C are the ends. Square brackets hold non-standard residues; d marks the D form. Ends that are not written are not given here. Ahx = NCCCCCC(=O)O
Microphysiometer pIC50 (block of TF-1 cell response to IL-5) reference

# annotated cases, reported Microphysiometer pIC50 (block of TF-1 cell response to IL-5) shown
Ac-EGYVCVEWARCPTCK-NH2 (disulfide (positions not given here); also: dimer, intramolecular and intermolecular disulfides, places not given here) [dimer of (Ac)-EGYVCVEWARCPTCK-(NH2)]: 8.4 negative log of the molar IC50
H-EGYVCVEWARCPTCK-OH (disulfide (positions not given here); also: dimer, intramolecular and intermolecular disulfide linkages, places not given here) [dimer of (H)-EGYVCVEWARCPTCK-(OH)]: 9.2 negative log of the molar IC50

Prompt: Can you look up the measured Microphysiometer pIC50 (block of TF-1 cell response to IL-5) of H-TGGGDGYVCVEWARCPTCK-OH (disulfide 15-18; also: homodimer via interchain disulfide Cys9-Cys9, Synthetic dimer made with orthogonal protecting groups) [AF 18748 (a dimer of residues 32-50 of SEQ ID NO: 8)] for me?
Completion: 9.6 negative log of the molar IC50

Prompt: How about this binder: H-EGYVCVEWARCPTCG-NH2 (disulfide (positions not given here); also: dimer, intramolecular and intermolecular disulfide linkages, places not given here) [dimer of (H)-EGYVCVEWARCPTCG-(NH2)]
Completion: 9.1 negative log of the molar IC50

Prompt: Queued: [Ahx]EGYVCVEWARCPTCR-NH2 (disulfide (positions not given here); also: dimer, intramolecular and intermolecular disulfides, places not given here) [dimer of (Ahx)-EGYVCVEWARCPTCR-(NH2)]
Completion: 9 negative log of the molar IC50

Prompt: Consider next the binder H-EGYVCVEWARCPTCR-OH (disulfide (positions not given here); also: dimer, intramolecular and intermolecular disulfide linkages, places not given here) [dimer of (H)-EGYVCVEWARCPTCR-(OH)] in the same way.
Completion: 9.6 negative log of the molar IC50
